Origin of the recorded values: ChEMBL document CHEMBL1821697

log10 of IC50 by entry:
biological target: Mitogen-activated protein kinase 9 (Homo sapiens, UniProt P45984); experiment: Inhibition of recombinant JNK2 using ser73 of c-jun as substrate preincubated for 15 mins measured after 60 mins by TR-FRET assay
Sequence (P45984 whole entry): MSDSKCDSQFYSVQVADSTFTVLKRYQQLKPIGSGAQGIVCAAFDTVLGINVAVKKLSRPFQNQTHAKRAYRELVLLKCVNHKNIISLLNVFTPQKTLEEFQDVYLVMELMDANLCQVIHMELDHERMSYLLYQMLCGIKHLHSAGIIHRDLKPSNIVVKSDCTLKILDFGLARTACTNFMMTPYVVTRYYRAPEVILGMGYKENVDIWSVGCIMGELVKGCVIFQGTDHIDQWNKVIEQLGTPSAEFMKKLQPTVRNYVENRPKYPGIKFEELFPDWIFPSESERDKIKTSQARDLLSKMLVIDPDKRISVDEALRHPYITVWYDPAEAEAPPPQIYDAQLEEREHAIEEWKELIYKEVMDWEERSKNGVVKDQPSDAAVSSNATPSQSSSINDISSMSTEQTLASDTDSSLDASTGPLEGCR
# values: log10(IC50), units nM

Study these solved cases before continuing.
CPD_SMILES | METRIC_NAME | OBSERVED_VALUE
O=C(Cn1c(=O)ccc2ccc(C(F)(F)F)cc21)Nc1scc(Br)c1-c1ncn[nH]1 | log10 of IC50 | 1.32
O=C(Cc1ccc(C(F)(F)F)c2ncccc12)Nc1scc(Cl)c1-c1ncn[nH]1 | log10 of IC50 | 1.38
O=C(Cc1cc(C(F)(F)F)cc2ncccc12)Nc1scc(Br)c1-c1nnc[nH]1 | log10 of IC50 | 2.53
O=C(Cn1c(=O)ccc2cc(C(F)(F)F)ccc21)Nc1scc(Br)c1-c1ncn[nH]1 | log10 of IC50 | 0.70
Cn1cnc(-c2c(Br)csc2NC(=O)CN2C(=O)CCc3ncccc32)n1 | log10 of IC50 | 1.11

[Q] // log10 of IC50 lookup, key: O=C(Cn1c(=O)ccc2cc(OC(F)(F)F)ccc21)Nc1scc(Br)c1-c1ncn[nH]1
[A] 1.08

[Q] Same thing, different compound: O=C(Cn1c(=O)ccc2nc(C(F)(F)F)ccc21)Nc1scc(Br)c1-c1ncn[nH]1
[A] 1.58

[Q] Same thing, different compound: O=C(Cn1c(=O)ccc2cnccc21)Nc1scc(Br)c1-c1ncn[nH]1
[A] 0.90

[Q] Same thing, different compound: N#Cc1csc(NC(=O)CN2C(=O)CCc3ncccc32)c1-c1nc[nH]n1
[A] 1.26

[Q] Same thing, different compound: N#Cc1ccc2c(ccc(=O)n2CC(=O)Nc2scc(Br)c2-c2ncn[nH]2)c1
[A] 1.00

[Q] Same thing, different compound: O=C(CN1C(=O)CCc2ncccc21)Nc1scc(Br)c1-c1ncco1
[A] 1.82

[Q] Same thing, different compound: N#Cc1csc(NC(=O)CN2C(=O)CCc3ncccc32)c1-c1nccs1
[A] 1.79

[Q] Same thing, different compound: N#Cc1csc(NC(=O)Cn2c(=O)ccc3cc(C(F)(F)F)ccc32)c1-c1nccs1
[A] 1.72

[Q] Same thing, different compound: N#Cc1ccc2ccc(=O)n(CC(=O)Nc3scc(Br)c3-c3ncn[nH]3)c2c1
[A] 1.00

[Q] Same thing, different compound: O=C(Cn1c(=O)ccc2cnc(C(F)(F)F)cc21)Nc1scc(Br)c1-c1ncn[nH]1
[A] 1.32

[Q] Same thing, different compound: O=C(Cn1c(=O)ccn2nc(C(F)(F)F)cc12)Nc1scc(Br)c1-c1ncn[nH]1
[A] 1.56

[Q] Same thing, different compound: O=C(Cn1c(=O)ccc2ccc(OC(F)(F)F)cc21)Nc1scc(Br)c1-c1ncn[nH]1
[A] 1.83

[Q] Same thing, different compound: O=C(Cc1cccc2ncc(C(F)(F)F)cc12)Nc1scc(Br)c1-c1nc[nH]n1
[A] 2.21
